The measured values listed here are drawn from patent US20240425587A1.

MEASURED TARGET: T1, human PILRA, c-term His-Avi tag (human, UniProt Q9UKJ1 20-197, limits assumed)
T1 construct: not shown: C-terminal His-Avi tag
T1 sequence (Q9UKJ1 20-197 limits assumed): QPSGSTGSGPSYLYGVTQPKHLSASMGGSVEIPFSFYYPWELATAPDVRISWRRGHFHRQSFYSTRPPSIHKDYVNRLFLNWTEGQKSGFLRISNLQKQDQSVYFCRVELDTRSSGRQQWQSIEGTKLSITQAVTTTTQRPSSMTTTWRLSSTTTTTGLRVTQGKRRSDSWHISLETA
TEST PROTOCOL: SPR (Biacore), antibody captured, PILRA as analyte
Protocol: Experiments were performed to determine the kinetics of anti-PILRA antibody binding to human […]. The assay is depicted in FIG. 6. A rabbit anti-PILRA was used as a positive control, and H1 LALAPS was used as a negative control. Human PILRA (human PILRA, c-term His-Avi tag, 0.68 mg/mi) was used as the antigen. The running buffer was HBSTE/0.5% BSA, pH 7.4, and the regeneration solution was 10 mM glycine-HCl (pH 2.1). […]

{"BINDER": "A11 (antibody, V domains shown, phage campaign; same VH/VL as E17) VH: QVQLVQSGAEVKKPGASVKVSCKASGYTFTSYYMHWVRQAPGQGLEWMGWINPNNGDTNYAQKFQGRVTMTRDTSTSTVYMELSSLRSEDTAVYYCARAGYFDWLLDYYGMDVWGQGTTVTVSS VL: DIVMTQSPLSLPVTPGEPASISCRSSQSLLHSNGYNYLDWYLQKPGQSPQLLIYDASNLETGVPDRFSGSGSGTDFTLKISRVEAEDVGVYYCMQALQTPFGPGTKVDIK", "kon, M⁻¹ s⁻¹": 96000}
{"BINDER": "E5 (antibody, V domains shown) VH: QVQLVQSGAEVKKPGSSVKVSCKASGYTFTSYGINWVRQAPGQGLEWMGWINPNSGDTLYAQNFQGRVTITADESTSTAYMELSSLRSEDTAVYYCARGPEPYWYFDLWGRGTLVTVSS VL: EIVMTQSPATLSVSPGERATLSCRASQNIDSRFLAWYQQKPGQAPRLLIYGASTRATGIPARFSGSGSGTEFTLTISSLQSEDFAVYYCQQSFSTPLTFGGGTKVEIK", "kon, M⁻¹ s⁻¹": 80000}
{"BINDER": "A5 (antibody, V domains shown, phage campaign) VH: QVQLVQSGAEVKKPGSSVKVSCKASGYTFTDYYMNWVRQAPGQGLEWMGGIIPIFGTADYAQRFQGRVTITADESTSTAYMELSSLRSEDTAVYYCARDAGYYGMDVWGQGTLVTVSS VL: EIVMTQSPATLSVSPGERATLSCRASQSVSNYLAWYQQKPGQAPRLLIYGASTRATGIPARFSGSGSGTEFTLTISSLQSEDFAVYYCQQFDDLPLTFGPGTKVEIK", "kon, M⁻¹ s⁻¹": 140000}
{"BINDER": "E15 (antibody, V domains shown, B-cell cloning campaign (mice)) VH: QVQLQQSGAELVKPGASVKLSCKASGNTFTIYDINWVRQRPEQGLEWIGWIFPGDGSTKYNGKFKGKATLTTDKSSSTAYMQLSRLTSEDSAVYFCARRAHYYGSSFDYWGQGTTLTVSS VL: DIQMTQSSSYLSVSLGGRVTITCKASDHINNWLAWYQQKPGNGPRLLISGAISLEIGVPSRFSGSGSGKEYTLSITSLQTEDVATYYCQQYWSPPWTFGGGTKLEIK", "kon, M⁻¹ s⁻¹": 53000}
{"BINDER": "C1 (antibody, V domains shown, first hybridoma campaign) VH: QIQLVQSGPELKKPGETVKISCKASGYTFTTYGMSWVKQAPGKGLKWMGWINTYSGVPTYADDFQGRFAFSLETSASTAYLQINNLKNEDTAPYFCVRDGYAAPYWGQGTLVTVSA VL: NIMMTQSPSSLAVSAGEKVTMRCKSSQSVLYSSNQKNYLAWYQQKPGQSPKLLIYWASTRESGVPDRFTGSGSGTDFTLTISSVQAEDLAVYYCHQYLSSWTFGGGTKLEIK", "kon, M⁻¹ s⁻¹": 81000}
